- Target entity: Protein-S-isoprenylcysteine O-methyltransferase (Homo sapiens)
- Sequence (O60725 whole entry, the tested form may be a part): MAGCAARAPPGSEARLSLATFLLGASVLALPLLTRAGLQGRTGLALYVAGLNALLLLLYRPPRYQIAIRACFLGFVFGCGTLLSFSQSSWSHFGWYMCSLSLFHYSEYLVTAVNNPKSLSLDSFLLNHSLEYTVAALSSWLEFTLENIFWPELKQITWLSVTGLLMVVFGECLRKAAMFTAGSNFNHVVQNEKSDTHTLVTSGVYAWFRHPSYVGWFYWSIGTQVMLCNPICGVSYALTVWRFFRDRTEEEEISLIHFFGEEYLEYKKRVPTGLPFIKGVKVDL
- Test details: Inhibition of human isoprenylcysteine carboxyl methyltransferase using [14C]SAM and N-acetyl-S-farnesyl-L-cysteine as substrate at 10 uM after 30 mins by vapor diffusion assay
Let's look at some compounds and their measured inhibition.
Measure: inhibition

CC(C)=CCC/C(C)=C/CC/C(C)=C/CSCC1OCCO1 : 9%
CC(C)=CCC/C(C)=C/CC/C(C)=C/CSc1ccccc1C(=O)O : 40%
CC(C)=CCC/C(C)=C/CC/C(C)=C/CC/C(C)=C/CSCCO : 40%
